tested system: p210^bcr-abl (Homo sapiens)
Construct: immune complexes containing ^32P-labeled p210^bcr-abl were collected on protein Sepharose beads; BCR (N-terminal part of the breakpoint cluster region protein, natural fusion partner); endogenous in cells; host or cells: K562 cells (lysate, immunoprecipitated on Protein A-Sepharose); the other entry of the earlier key: BCR (P11274, Breakpoint cluster region protein)
Sequence (P00519 with tags, fused parts or gaps): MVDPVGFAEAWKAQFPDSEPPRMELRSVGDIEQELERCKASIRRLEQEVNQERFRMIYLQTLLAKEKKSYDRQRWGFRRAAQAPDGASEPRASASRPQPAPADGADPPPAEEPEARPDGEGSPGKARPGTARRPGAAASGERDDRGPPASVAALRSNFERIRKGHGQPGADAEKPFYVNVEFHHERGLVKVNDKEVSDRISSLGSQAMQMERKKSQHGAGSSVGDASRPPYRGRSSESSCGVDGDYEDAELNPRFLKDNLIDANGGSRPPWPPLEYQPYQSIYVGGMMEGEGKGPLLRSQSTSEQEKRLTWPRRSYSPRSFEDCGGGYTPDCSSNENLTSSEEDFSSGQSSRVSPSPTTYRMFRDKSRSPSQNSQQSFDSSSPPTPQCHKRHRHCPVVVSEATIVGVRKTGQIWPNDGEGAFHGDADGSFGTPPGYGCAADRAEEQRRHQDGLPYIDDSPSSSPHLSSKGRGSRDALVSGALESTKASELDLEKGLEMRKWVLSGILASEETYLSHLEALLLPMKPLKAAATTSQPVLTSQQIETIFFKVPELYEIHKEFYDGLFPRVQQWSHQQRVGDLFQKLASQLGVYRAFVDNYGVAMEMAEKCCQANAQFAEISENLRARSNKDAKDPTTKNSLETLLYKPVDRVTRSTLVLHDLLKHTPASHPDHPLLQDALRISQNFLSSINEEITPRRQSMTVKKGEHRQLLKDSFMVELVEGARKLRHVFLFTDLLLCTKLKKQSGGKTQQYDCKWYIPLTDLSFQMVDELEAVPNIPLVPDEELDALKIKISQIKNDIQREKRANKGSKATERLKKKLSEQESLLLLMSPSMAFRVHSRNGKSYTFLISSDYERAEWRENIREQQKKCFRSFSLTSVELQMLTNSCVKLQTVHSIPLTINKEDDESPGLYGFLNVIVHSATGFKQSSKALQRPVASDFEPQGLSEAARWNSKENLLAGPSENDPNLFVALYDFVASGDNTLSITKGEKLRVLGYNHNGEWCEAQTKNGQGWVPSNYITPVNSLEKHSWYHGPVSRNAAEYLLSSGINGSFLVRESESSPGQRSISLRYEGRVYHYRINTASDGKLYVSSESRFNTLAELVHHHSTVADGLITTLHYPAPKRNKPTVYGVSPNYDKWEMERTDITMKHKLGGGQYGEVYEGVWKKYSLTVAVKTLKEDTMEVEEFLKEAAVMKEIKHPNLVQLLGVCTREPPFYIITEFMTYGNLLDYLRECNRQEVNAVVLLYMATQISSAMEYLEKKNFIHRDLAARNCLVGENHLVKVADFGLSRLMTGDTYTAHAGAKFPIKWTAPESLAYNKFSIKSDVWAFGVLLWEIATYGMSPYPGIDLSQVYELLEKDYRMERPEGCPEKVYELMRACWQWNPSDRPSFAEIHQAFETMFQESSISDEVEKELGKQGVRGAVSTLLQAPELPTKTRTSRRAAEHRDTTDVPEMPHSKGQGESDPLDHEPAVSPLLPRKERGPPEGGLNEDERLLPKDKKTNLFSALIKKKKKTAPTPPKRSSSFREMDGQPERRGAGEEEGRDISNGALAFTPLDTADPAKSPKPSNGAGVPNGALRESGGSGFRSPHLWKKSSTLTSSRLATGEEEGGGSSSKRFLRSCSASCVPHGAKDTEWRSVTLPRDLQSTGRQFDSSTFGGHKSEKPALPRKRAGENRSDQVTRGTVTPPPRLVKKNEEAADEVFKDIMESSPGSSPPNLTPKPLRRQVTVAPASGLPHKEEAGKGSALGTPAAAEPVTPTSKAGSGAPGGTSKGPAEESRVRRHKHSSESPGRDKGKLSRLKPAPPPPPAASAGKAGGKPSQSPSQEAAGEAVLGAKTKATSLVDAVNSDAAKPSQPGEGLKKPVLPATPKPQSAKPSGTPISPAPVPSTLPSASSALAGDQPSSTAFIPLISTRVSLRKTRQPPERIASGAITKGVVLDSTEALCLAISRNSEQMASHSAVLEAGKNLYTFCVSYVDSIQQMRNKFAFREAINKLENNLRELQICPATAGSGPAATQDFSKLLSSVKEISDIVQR
assay procedure: Inhibition of in vitro auto-phosphorylation of p210^bcr-abl, immune-complex kinase assay
Format: biochemical
settings: Table 10; immune complex kinase assay; mean ± S.E., 3 experiments; read-out: Enzyme Assays IC50 (μM) p210bcl-abl in vitro phosphorylation
measurement type: IC50 (µM)

Past entries and their recorded results:
{"query smiles": "CC(C)OC(=O)c1ccc(CCc2cc(O)c(Br)cc2O)cc1", "IC50 [µM]": 5.77}
{"query smiles": "CC(C)OC(=O)c1ccc(CCC2=CC(=O)C(Br)=CC2=O)cc1", "IC50 [µM]": 4.19}
{"query smiles": "COC(=O)c1ccc(CCC2=CC(=O)C(Br)=CC2=O)cc1", "IC50 [µM]": 3.52}

(I) COC(=O)c1ccc(CCc2cc(O)ccc2O)cc1
(II) COC(=O)c1ccc(CCc2cc(O)c(Br)cc2O)cc1
(III) O=C(O)c1ccc(CCc2cc(O)ccc2O)cc1O
Please put the entries in order of rising IC50. I would appreciate it if you listed the labels in the requested order.
I, II, III
(I: 2.64 µM, II: 4.42 µM, III: 13 µM)
